Data origin: patent US20250289826A1

Molecular target: PLpro (Severe acute respiratory syndrome coronavirus 2 (2019-nCoV) (SARS-CoV-2))
Assay: Assay for PLpro inhibitory activity (Ub-AMC fluorescence; single point inhibition test and IC50 determination)
Type: biochemical
Settings: read-out: inhibition of PLpro (1 μM), 1 μM test compound, 100 nM PLpro, 10 μM Ub-AMC, 37° C. 30 min
Use 80% as the dividing line for inhibition at 1 µM, with the line itself on the condition met side and lower values as condition not met.

As a guide, the following entries are already answered.
{"Compound": "Cc1ccc(N2CC(N(C)C)C2)cc1C(=O)NC1(c2cccc3c2CCCC3)CC1", "Assigned label": "condition met"}
{"Compound": "Cc1ccc(N2CCN(C(C)C)CC2)cc1C(=O)NC1(c2ccc(F)c3ncccc23)CC1", "Assigned label": "condition met"}
{"Compound": "Cc1ccc(N2CC(N(C)C)C2)cc1C(=O)NC1(c2ccc(OC(F)(F)F)c3ncccc23)CC1", "Assigned label": "condition met"}
{"Compound": "Cc1ccc(Br)cc1/C=N/C1(c2ccc(F)c3ncccc23)CC1", "Assigned label": "condition not met"}
{"Compound": "Cc1ccc(N2CC(N(C)C)C2)cc1C(=O)NC1(c2ccc(C#N)c3ccccc23)CC1", "Assigned label": "condition met"}

Prompt: inhibition at 1 µM >= 80% for Cc1ccc(N2CC(N(C)C)C2)cc1C(=O)NC1(c2cccc3cc(F)ccc23)CC1 ?
Completion: condition met

Prompt: Check this compound for inhibition at 1 µM at or above 80%: Cc1ccc(N2CC3C(N)C3C2)cc1C(=O)NC1(c2ccc(F)c3ncccc23)CC1 (centres unmarked)
Completion: condition not met
